Provide the recorded inhibition for the entries that follow.
System: Receptor-type tyrosine-protein kinase FLT3 (Homo sapiens), P36888 [UNDEFINED MUTATION]
Sequence (P36888 whole entry, looked up, change not shown): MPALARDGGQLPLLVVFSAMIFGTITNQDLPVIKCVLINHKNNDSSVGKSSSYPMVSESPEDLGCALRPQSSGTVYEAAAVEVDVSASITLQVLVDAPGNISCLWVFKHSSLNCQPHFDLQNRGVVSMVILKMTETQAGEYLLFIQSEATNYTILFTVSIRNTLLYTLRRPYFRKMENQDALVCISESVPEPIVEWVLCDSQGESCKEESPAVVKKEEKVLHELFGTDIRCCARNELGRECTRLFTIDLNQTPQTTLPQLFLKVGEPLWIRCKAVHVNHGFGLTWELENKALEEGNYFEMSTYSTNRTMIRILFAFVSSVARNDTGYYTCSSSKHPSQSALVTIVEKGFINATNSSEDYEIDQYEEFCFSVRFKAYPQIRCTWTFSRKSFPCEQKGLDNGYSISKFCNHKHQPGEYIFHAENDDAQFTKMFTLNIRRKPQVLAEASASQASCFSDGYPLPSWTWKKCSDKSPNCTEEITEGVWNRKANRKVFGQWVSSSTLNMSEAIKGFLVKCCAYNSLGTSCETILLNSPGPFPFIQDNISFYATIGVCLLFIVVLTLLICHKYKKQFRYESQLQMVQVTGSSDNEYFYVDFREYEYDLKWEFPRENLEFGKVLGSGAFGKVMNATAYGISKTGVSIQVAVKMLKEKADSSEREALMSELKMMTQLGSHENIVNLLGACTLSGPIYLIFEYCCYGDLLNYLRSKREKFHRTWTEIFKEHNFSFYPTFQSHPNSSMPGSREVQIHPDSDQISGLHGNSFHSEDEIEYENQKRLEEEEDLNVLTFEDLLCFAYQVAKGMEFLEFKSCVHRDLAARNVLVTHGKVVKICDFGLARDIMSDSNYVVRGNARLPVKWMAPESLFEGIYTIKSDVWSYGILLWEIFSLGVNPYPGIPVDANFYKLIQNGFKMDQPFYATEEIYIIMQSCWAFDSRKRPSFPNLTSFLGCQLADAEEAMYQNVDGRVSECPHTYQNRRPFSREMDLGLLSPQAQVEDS
MEASUREMENT CONDITIONS: dose 500.0 nM
Description: Inhibition of FLT3 ITD mutant (unknown origin) at 500 nM relative to control
I only need the number, in %, no unit after it.

Read off the recorded inhibition for `CC(C)(C)c1cc(NC(=O)Nc2ccc(CC(=O)Nc3ccc(-c4cn5c(n4)sc4cc(OCCN6CCOCC6)ccc45)cc3)cc2)on1`
38.5

Item `Cc1cc(NC(=O)Nc2ccc(-c3cn4c(n3)sc3cc(OCCN5CCOCC5)ccc34)cc2)on1` : provide inhibition
66.7

Recall and state the measured inhibition for `COc1ccc2nc(NC(=O)Cc3ccc(NC(=O)Nc4cc(C)no4)cc3)sc2c1` .
4.5

For the compound `CC(C)(C)c1cc(NC(=O)Nc2ccc(-c3cn4c(n3)sc3cc(OCCN5CCOCC5)ccc34)cc2)on1` , give its measured inhibition value.
99.6

# return recorded inhibition for entry `Cc1cc(NC(=O)Nc2ccc(C(=O)Nc3ccc(-c4cn5c(n4)sc4cc(OCCN6CCOCC6)ccc45)cc3)cc2)on1`
28.1

For `CC(C)(C)c1cc(NC(=O)Nc2ccc3c(c2)sc2nc(-c4ccc(OCCN5CCOCC5)cc4)cn23)no1` , write its inhibition.
98.8

Identify measured inhibition associated with `Cc1cc(NC(=O)Nc2ccc(CC(=O)Nc3ccc(-c4cn5c(n4)sc4cc(OCCN6CCOCC6)ccc45)cc3)cc2)no1`
35.8

Identify measured inhibition associated with `COc1ccc2c(c1)sc1nc(-c3ccc(NC(=O)Nc4cc(C)on4)cc3)cn12`
67.3

Input `COc1ccc2c(c1)sc1nc(-c3ccc(NC(=O)Nc4cc(C)no4)cc3)cn12` , output reported inhibition.
52.6

Read the entry `CC(C)(C)c1cc(NC(=O)Nc2ccc(CC(=O)Nc3ccc(-c4cn5c(n4)sc4cc(OCCN6CCOCC6)ccc45)cc3)cc2)no1` and write its reported inhibition.
36

Complete the entry with inhibition for `COc1ccc2nc(NC(=O)Cc3ccc(NC(=O)Nc4cc(C(C)(C)C)on4)cc3)sc2c1`
2.5

Supply inhibition value. Item: `Cc1cc(NC(=O)Nc2ccc(-c3cn4c(n3)sc3cc(OCCN5CCOCC5)ccc34)cc2)no1`
79.9

Look up inhibition of `CC(C)(C)c1cc(NC(=O)Nc2ccc3c(c2)sc2nc(-c4ccc(OCCN5CCOCC5)cc4)cn23)on1` and report it.
99.3

Complete the entry with inhibition for `Cc1cc(NC(=O)Nc2ccc3c(c2)sc2nc(-c4ccc(OCCN5CCOCC5)cc4)cn23)no1`
82.5

Dear colleague, please send me the reported inhibition for `CC(C)(C)c1cc(NC(=O)Nc2ccc(C(=O)Nc3ccc(-c4cn5c(n4)sc4cc(OCCN6CCOCC6)ccc45)cc3)cc2)no1` when you can.
35

Quickly give me recorded inhibition for `COc1ccc2nc(NC(=O)Cc3ccc(NC(=O)Nc4cc(C)on4)cc3)sc2c1`
-2

Identify measured inhibition corresponding to `COc1ccc2nc(NC(=O)Cc3ccc(NC(=O)Nc4cc(C(C)(C)C)no4)cc3)sc2c1`
6.4

Return value of inhibition for input `Cc1cc(NC(=O)Nc2ccc(C(=O)Nc3ccc(-c4cn5c(n4)sc4cc(OCCN6CCOCC6)ccc45)cc3)cc2)no1` , no commentary.
29
